All figures here come from patent US20240109917A1.

Exercise: state measured pIC50 for each of the compounds provided.
Target: PDGFRβ (Rattus norvegicus (Rat), UniProt Q05030)
Sequence (Q05030 32-1097): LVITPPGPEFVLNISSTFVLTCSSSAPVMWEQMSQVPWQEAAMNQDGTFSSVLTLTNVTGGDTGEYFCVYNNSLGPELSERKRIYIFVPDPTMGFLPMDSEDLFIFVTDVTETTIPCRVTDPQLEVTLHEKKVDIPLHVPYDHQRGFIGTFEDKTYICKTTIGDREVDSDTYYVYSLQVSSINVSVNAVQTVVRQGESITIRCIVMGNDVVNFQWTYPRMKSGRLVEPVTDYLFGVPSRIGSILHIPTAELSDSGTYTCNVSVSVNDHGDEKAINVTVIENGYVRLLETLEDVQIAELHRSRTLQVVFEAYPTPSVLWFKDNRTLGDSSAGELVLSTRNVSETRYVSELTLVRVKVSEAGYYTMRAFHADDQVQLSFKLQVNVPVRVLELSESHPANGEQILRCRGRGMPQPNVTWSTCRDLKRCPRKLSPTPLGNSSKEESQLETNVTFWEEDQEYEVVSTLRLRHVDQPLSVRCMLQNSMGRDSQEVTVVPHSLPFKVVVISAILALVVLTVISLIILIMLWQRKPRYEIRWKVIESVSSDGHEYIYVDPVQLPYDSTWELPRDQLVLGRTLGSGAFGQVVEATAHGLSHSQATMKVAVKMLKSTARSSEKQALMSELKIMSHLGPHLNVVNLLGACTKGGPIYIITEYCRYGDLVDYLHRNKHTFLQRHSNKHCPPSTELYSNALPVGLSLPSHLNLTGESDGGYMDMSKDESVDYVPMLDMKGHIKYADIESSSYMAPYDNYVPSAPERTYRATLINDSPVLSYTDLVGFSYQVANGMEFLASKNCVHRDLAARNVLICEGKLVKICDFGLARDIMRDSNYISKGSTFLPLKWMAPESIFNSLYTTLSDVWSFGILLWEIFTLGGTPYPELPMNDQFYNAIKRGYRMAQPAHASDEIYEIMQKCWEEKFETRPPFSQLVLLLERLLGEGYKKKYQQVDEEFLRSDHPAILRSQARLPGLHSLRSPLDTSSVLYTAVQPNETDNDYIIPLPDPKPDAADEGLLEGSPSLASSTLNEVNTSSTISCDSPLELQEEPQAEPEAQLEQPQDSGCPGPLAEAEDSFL
Assay: PDGFRβ Cellular Assay (PDGFRb P-Y751 HTRF in A10 cells stimulated with PDGF-BB)
Type: cell-based
Settings: read-out: PDGFR Cellular IC50
Answer as the number alone; pIC50 is minus log10 of concentration in mol/L.

Noted for `Cc1cc(C(=O)NCCN2CC3CCC2CC3)sc1NC(=O)c1cnn2cc(-c3cnn(C)c3)sc12` : its pIC50 reads 6.63

// pIC50 value for `Cc1ncc(NC(=O)CNCC(C)C)cc1NC(=O)c1cnn2cc(-c3cnn4c3OCCC4)sc12` : 8.21

`Cc1ncc(C(=O)NCCN2C3CCC2COC3)cc1NC(=O)c1cnn2cc(-c3cnn(C)c3)sc12` has a reported pIC50 of 7.71

Short answer for `Cc1ncc(C(=O)NCCN2CCCC2(C)C)cc1NC(=O)c1cnn2cc(-c3cn(C)nc3C)sc12` : pIC50 was 8.00

Measured pIC50 of `Cc1cc(C(=O)NCCN2CCCC2(C)C)sc1NC(=O)c1cnn2cc(-c3cncnc3)sc12` : 7.37

The measured pIC50 associated with `Cc1ncc(C(=O)NCCN2CC(C)(C)C2)cc1NC(=O)c1cnn2cc(-c3cnn(C)c3)sc12` reads 7.10

What the record says about `Cc1ncc(NC(=O)CCN2CC3CCC2CC3)cc1NC(=O)c1cnn2cc(-c3cnn(C)c3)sc12` : pIC50 is 8.14

Field pIC50 (entry `Cc1ncc(S(=O)(=O)NCCN2CCCC2(C)C)cc1NC(=O)c1cnn2cc(-c3cnn(C)c3)sc12` ) reads 6.44

Given item `Cc1ncc(C(=O)NCCN2CCC3(CC3)C2)cc1NC(=O)c1cnn2cc(-c3ccncc3)sc12` , the value recorded as its pIC50 is 6.98

The compound listed as `COc1ncccc1-c1cn2ncc(C(=O)Nc3cc(NC(=O)CN4C[C@H](CO)OC(C)(C)C4)cnc3C)c2s1` has a reported pIC50 of 8.04

Reported pIC50 ( `Cc1ncc(NC(=O)CN2CC(C)(C)C2)cc1NC(=O)c1cnn2cc(-c3cnn(C(F)F)c3)sc12` ) = 8.10

`Cc1ncc(C(=O)NCCN2CC(C)(C)C2)cc1NC(=O)c1cnn2cc(-c3ccncc3)sc12` yielded pIC50 of 6.82

Notebook: `Cc1ncc(NC(=O)CNC2CCCC2)cc1NC(=O)c1cnn2cc(-c3cnn4c3OCCC4)sc12` , pIC50 read as 8.21

Sample Cc1ncc(C(=O)NCCN2CCC3(CCOC3)C2)cc1NC(=O)c1cnn2cc(-c3cnn(C)c3)sc12 (stereo not drawn) ; pIC50 observed: 7.13

Short answer for `COCCn1cc(-c2cn3ncc(C(=O)Nc4cc(NC(=O)CN5CCC[C@@H]5C)cnc4C)c3s2)cn1` : pIC50 was 7.97

Field pIC50 (entry `Cc1ncc(NC(=O)CN2CCCC(F)(F)C2)cc1NC(=O)c1cnn2cc(-c3cnn(C)c3)sc12` ) reads 8.33

Recorded pIC50 (compound `COc1ncccc1-c1cn2ncc(C(=O)Nc3cc(C(=O)NCCN4CCC[C@@H]4C)cnc3C)c2s1` ): 8.37

Entry `COCCn1cc(-c2cn3ncc(C(=O)Nc4cc(C(=O)NCCN5CC(C)(C)C5)cnc4C)c3s2)cn1` ; pIC50 = 6.63

Noted for `CC(=O)Nc1ccnc(-c2cn3ncc(C(=O)Nc4cc(C(=O)NCCN5CC6CCC5CC6)cnc4C)c3s2)c1` : its pIC50 reads 6.07

Value of pIC50 reported for the compound `Cc1cc(C(=O)NCCN2CCCC2(C)C)sc1NC(=O)c1cnn2cc(-c3cnn(C)c3)sc12` is 5.77

// field: pIC50; key: `Cc1ncc(NC(=O)CN2CC(C)(C)C2)cc1NC(=O)c1cnn2cc(-c3cn[nH]c3)sc12` ; value = 7.99

Looking up `Cc1ncc(NC(=O)CN2CCC3(CCO3)CC2)cc1NC(=O)c1cnn2cc(-c3cnn(C)c3)sc12` , I see its pIC50 listed as 7.10

Lab note: `Cc1ncc(NC(=O)CNCC2CC2)cc1NC(=O)c1cnn2cc(-c3cnn4c3OCCC4)sc12` gave pIC50 of 7.60

Recorded pIC50 (compound `Cc1ncc(NC(=O)CN2CCOCC2)cc1NC(=O)c1cnn2cc(-c3cnn(C)c3)sc12` ): 7.06

Recorded result, `Cc1cc(C(=O)NCCN2CCCC23CC3)sc1NC(=O)c1cnn2cc(-c3cnn(C)c3)sc12` , pIC50: 7.95

Entry `Cc1ncc(NC(=O)CN2CCOCC2(C)C)cc1NC(=O)c1cnn2cc(-c3cnn(C)c3)sc12` ; pIC50 = 7.72

Form: compound = `Cc1ncc(C(=O)NCCN2CCC3(CC3)C2)cc1NC(=O)c1cnn2cc(-c3cn(C)nc3C)sc12` ; pIC50 = 7.74

For this compound ( `Cc1ncc(NC(=O)CN2CC(C)(C)C2)cc1NC(=O)c1cnn2cc(-c3cnn(-c4cccnc4)c3)sc12` ), measured pIC50 is 8.36
